assay: Dissociation constant, pKa of compound by potentiometric fast UV-metric titration method; format: physicochemical
Assignment: determine reported pKa for the given molecules.
Answers are plain numbers.

For each listed entry, give its pKa.
1. CCC/N=C1\S/C(=C\c2ccc(O)c(C(F)(F)F)c2)C(=O)N1c1ccccc1C
2. CCC/N=C1\S/C(=C\c2ccc(O)c(C)c2)C(=O)N1c1ccccc1C
3. CCC/N=C1\S/C(=C\c2ccc(O)c(C(C)C)c2)C(=O)N1c1ccccc1C
4. CCC/N=C1\S/C(=C\c2ccc(O)c(Cl)c2)C(=O)N1c1ccccc1C
5. CCC/N=C1\S/C(=C\c2ccc(O)c(Br)c2)C(=O)N1c1ccccc1C
6. CCC/N=C1\S/C(=C\c2ccc(O)cc2)C(=O)N1c1ccccc1C
7. CCC/N=C1\S/C(=C\c2ccc(O)cn2)C(=O)N1c1ccccc1C

OUT:
1: 6.6; 2: 8.5; 3: 8.6; 4: 6.8; 5: 6.4; 6: 8.3; 7: 7.1

----------
experiment: Lipophilicity, logD of compound at pH 7.4 by RP-HPLC analysis; format: physicochemical; details: buffer
parameter: logD
One number for each entry.

- smiles notation: "CCC/N=C1\\S/C(=C\\c2ccc(O)c(Br)c2)C(=O)N1c1ccccc1C"
  parameter: "logD"
  reported result: 3.9
- smiles notation: "CCC/N=C1\\S/C(=C\\c2ccc(O)c(C(C)C)c2)C(=O)N1c1ccccc1C"
  parameter: "logD"
  reported result: 4.3
- smiles notation: "Cc1ccccc1N1C(=O)/C(=C/c2ccc(O)c(Cl)c2)S/C1=N\\CCCF"
  parameter: "logD"
  reported result: 3.4
- smiles notation: "Cc1ccccc1N1C(=O)/C(=C/c2ccc(O)c(Cl)c2)S/C1=N\\C1COC1"
  parameter: "logD"
  reported result: 2.6

// switching to the query compound
IN: For the compound CCC/N=C1\S/C(=C\c2ccc(O)c(Cl)c2)C(=O)N1C1CCOCC1 , what logD is on record?
OUT: 3.7

----------
assay: Metabolic stability in human Hepatocyte assessed as intrinsic clearance at 1 uM incubated for 90 mins by UPLC-MS/MS analysis; format: ADME, tissue-based; conditions: hepatocytes
Assignment: determine reported CLH for the given molecules.

Recorded CLH, per entry:
- smiles notation: "CCC/N=C1\\S/C(=C\\c2ccc(O)c(C(F)(F)F)c2)C(=O)N1c1ccccc1C"
  CLH: "4.2 mL/min/g"
- smiles notation: "CCC/N=C1\\S/C(=C\\c2ccc(O)c(Cl)c2)C(=O)N1c1ccccc1C"
  CLH: "8.4 mL/min/g"

For each listed entry, give its CLH.
1. CCC/N=C1\S/C(=C\c2ccc(O)cn2)C(=O)N1c1ccccc1C
2. CCC/N=C1\S/C(=C\c2ccc(O)c(Br)c2)C(=O)N1c1ccccc1C

OUT:
["7.9 mL/min/g", "6 mL/min/g"]

----------
test: Metabolic stability in human skin S9 cells assessed as half life at 0.5 uM incubated for 180 mins by UPLC-MS/MS analysis; type: ADME, subcellular, Zone of skin; conditions: s9, 3 h
parameter: t1/2 (min)
One number for each entry, in min.

Recorded t1/2, per entry:
- smiles notation: "CCC/N=C1\\S/C(=C\\c2ccc(OC(=O)CCOC)c(C)c2)C(=O)N1c1ccccc1C"
  parameter: "t1/2"
  unit abbreviation: "min"
  reported result: 4.8
- smiles notation: "CCC/N=C1\\S/C(=C\\c2ccc(OC(C)=O)c(C)c2)C(=O)N1c1ccccc1C"
  parameter: "t1/2"
  unit abbreviation: "min"
  reported result: 7.3

IN: For the molecule CCC/N=C1\S/C(=C\c2ccc(OC(=O)CCO)c(C)c2)C(=O)N1c1ccccc1C , what t1/2 is on record?
OUT: 8.2
